Target: T1, recombinant extracellular domain protein of cynomolgus monkey DLL3 (cyno.DLL3-ECD-His) (cynomolgus monkey, UniProt A0A2K5WSR1 27-490)
T1 construct: extracellular domain; Commercial protein; not shown: His tag
T1 sequence: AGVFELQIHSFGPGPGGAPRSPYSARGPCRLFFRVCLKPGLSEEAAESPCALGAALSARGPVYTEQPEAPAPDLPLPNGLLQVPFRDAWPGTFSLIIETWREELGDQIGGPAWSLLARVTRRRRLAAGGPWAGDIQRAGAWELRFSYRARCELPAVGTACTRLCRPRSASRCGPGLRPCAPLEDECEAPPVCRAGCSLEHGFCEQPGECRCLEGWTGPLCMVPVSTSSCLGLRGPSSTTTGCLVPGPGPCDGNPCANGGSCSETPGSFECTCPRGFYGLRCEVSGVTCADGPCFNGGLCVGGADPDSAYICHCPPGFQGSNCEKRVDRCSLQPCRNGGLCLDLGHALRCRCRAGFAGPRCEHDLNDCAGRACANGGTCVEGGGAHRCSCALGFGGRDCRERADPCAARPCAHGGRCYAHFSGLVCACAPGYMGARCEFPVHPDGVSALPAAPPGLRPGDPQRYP
Experiment: BLI (ForteBio), antibody on ProA sensor, cynoDLL3-ECD-His in solution
PROPERTY: kon (M⁻¹ s⁻¹)
Numeric answer only, unit M⁻¹ s⁻¹ assumed.

Which kon value is on record for 87F7F10-Hz (antibody, human IgG1, kappa, V domains shown, Humanized; also called 87F7F10-hz1) VH: QVQLQESGPGLVKPSETLSLTCTVSGYSITSDFYWNWIRQPPGKGLEWIGYITYDGSTNYNPSLKSRVTISRDTSKNQFSLKLSSVTAADTAVYYCVYGDFNRHAMDYWGQGTLVTVSS VL: DIVMTQSPDSLAVSLGERATINCRSSQSLFNSRTRKNYLAWYQQKPGQPPKVLIYWASTRESGVPDRFSGSGSGTDFTLTISSLQAEDVAVYYCEQSFYLFTFGQGTKVEIKR ? 36700
